Here's a batch of molecules along with measured IC50 for COX-2 (Homo sapiens, UniProt P35354).
Quick reminder: number only, in µM, skip the unit.

Observe how each entry below is paired with its result.
molecule="N#CC1=C(N)n2c(nnc2-c2ccccc2)NC1c1ccccc1 (stereo not drawn)" result_type=IC50 assay_result=21.7
molecule="Cc1ccc(C2Nc3nnc(-c4ccccc4)n3C(N)=C2C#N)cc1 (stereo not drawn)" result_type=IC50 assay_result=46.9
molecule="N#CC1=C(N)n2c(nnc2-c2cccnc2)NC1c1ccccc1 (stereo not drawn)" result_type=IC50 assay_result=37.5
molecule="N#CC1=C(N)n2c(nnc2-c2cccnc2)NC1c1ccc(Cl)cc1 (stereo not drawn)" result_type=IC50 assay_result=11.6
molecule="COc1ccc(C2Nc3nnc(-c4ccncc4)n3C(N)=C2C#N)cc1 (stereo not drawn)" result_type=IC50 assay_result=42.7
molecule="N#CC1=C(N)n2c(nnc2-c2cccnc2)NC1c1ccc(Br)cc1 (stereo not drawn)" result_type=IC50 assay_result=53.7
molecule="N#CC1=C(N)n2c(nnc2-c2ccncc2)NC1c1ccccc1 (stereo not drawn)" result_type=IC50 assay_result=51.5
molecule="COc1ccc(C2Nc3nnc(-c4ccccc4)n3C(N)=C2C#N)cc1 (stereo not drawn)" result_type=IC50 assay_result=29.7

From here, focus on the item given below.
**Q:** For COX-2 (Homo sapiens, UniProt P35354), provide IC50 of Cc1ccc(C2Nc3nnc(-c4cccnc4)n3C(N)=C2C#N)cc1 (stereo not drawn) please.
**A:** 21.9

====

Biological target: sEH (Homo sapiens, UniProt P34913)
Sequence (P34913 whole entry, species assumed): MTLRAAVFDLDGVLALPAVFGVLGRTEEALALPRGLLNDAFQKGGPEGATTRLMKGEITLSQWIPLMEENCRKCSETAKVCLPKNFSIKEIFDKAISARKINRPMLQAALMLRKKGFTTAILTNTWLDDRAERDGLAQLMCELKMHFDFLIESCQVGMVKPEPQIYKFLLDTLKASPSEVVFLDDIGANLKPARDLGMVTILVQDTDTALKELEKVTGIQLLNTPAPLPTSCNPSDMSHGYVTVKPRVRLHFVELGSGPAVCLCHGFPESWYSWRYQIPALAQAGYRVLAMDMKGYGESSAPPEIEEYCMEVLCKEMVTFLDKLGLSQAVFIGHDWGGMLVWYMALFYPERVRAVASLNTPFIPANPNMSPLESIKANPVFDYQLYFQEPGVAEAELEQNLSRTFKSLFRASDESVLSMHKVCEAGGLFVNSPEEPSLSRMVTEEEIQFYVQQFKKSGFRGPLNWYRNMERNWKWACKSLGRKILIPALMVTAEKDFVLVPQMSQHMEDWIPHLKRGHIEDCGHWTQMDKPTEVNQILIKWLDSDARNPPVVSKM
Assay: In vitro sEH inhibition assay
Format: biochemical
Details: sEH (IC50, nM)
RESULT_TYPE: IC50 (nM)
Provide only the numeric value, understood in nM.

molecule="N#CC1=C(N)n2c(nnc2-c2cccnc2)NC1c1ccc(Cl)cc1 (centres unmarked)" target_system="sEH (Homo sapiens, UniProt P34913)" units_symbol=nM assay_result=2.95

Query molecule follows.
**Q:** Lab request: please report IC50 under test system sEH (Homo sapiens, UniProt P34913) for COc1ccc(C2Nc3nnc(-c4cccnc4)n3C(N)=C2C#N)cc1 (centres unmarked)
**A:** 2.1

====

Target: COX-2 (Homo sapiens)
Sequence (P35354 18-604): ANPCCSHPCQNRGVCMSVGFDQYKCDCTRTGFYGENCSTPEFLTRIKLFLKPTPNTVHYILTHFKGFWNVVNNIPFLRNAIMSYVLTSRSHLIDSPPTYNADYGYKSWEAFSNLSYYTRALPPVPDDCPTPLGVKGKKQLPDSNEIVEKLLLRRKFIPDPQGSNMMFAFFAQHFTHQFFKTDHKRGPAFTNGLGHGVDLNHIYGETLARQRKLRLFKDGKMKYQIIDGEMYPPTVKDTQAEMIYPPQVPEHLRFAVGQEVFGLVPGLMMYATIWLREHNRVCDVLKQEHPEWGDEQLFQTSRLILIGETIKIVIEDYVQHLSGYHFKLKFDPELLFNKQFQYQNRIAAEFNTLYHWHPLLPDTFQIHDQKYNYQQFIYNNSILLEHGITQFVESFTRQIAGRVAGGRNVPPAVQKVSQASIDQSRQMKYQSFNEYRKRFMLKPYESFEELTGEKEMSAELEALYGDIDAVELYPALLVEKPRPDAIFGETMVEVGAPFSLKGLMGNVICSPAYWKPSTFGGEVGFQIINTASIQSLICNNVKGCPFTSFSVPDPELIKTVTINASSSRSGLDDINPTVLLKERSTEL
Experiment: biochemical
Assay type: biochemical
Conditions: IC50 (COX-1)/IC50 (COX-2)
RESULT_TYPE: SI (selectivity index)
Just the number, please.

These recorded examples may help you get a feel for the data.
molecule="Cc1ccc(C2Nc3nnc(-c4ccccc4)n3C(N)=C2C#N)cc1 (stereo not drawn) [Compound 8d]" assay_result=6
molecule="COc1ccc(C2Nc3nnc(-c4ccncc4)n3C(N)=C2C#N)cc1 (stereo not drawn) [Compound 8j]" assay_result=7
molecule="N#CC1=C(N)n2c(nnc2-c2cccnc2)NC1c1ccccc1 (stereo not drawn) [Compound 8k]" assay_result=8
molecule="N#CC1=C(N)n2c(nnc2-c2cccnc2)NC1c1ccc(Br)cc1 (stereo not drawn) [Compound 8l]" assay_result=4
molecule="N#CC1=C(N)n2c(nnc2-c2ccccc2)NC1c1ccccc1 (stereo not drawn) [Compound 8a]" assay_result=10

**Q:** Requested read-out: SI (selectivity index). Entry: N#CC1=C(N)n2c(nnc2-c2cccnc2)NC1c1ccc(Cl)cc1 (stereo not drawn) [Compound 8m]
**A:** 20

**Q:** Any idea what its SI (selectivity index) is? The molecule is COc1ccc(C2Nc3nnc(-c4ccccc4)n3C(N)=C2C#N)cc1 (stereo not drawn) [Compound 8e]
**A:** 8

**Q:** So what does the record say about SI (selectivity index) for Cc1ccc(C2Nc3nnc(-c4cccnc4)n3C(N)=C2C#N)cc1 (stereo not drawn) [Compound 8n] ?
**A:** 10

**Q:** Which SI (selectivity index) value is on record for N#CC1=C(N)n2c(nnc2-c2ccncc2)NC1c1ccccc1 (stereo not drawn) [Compound 8f] ?
**A:** 6

src = paper PMC11307993
